biological target: Aurora A kinase (Homo sapiens); construct: purchased; experiment: Aurora-A (human) kinase assay (Kemptide substrate); type: biochemical; details: pIC50 is -log(IC50, M); 15 μM ATP; read-out: Kinase Inhibition pIC50 Aurora A kinase (converted)
Endpoint: log10 IC50 (log10 of the value in µM)
Heads up, the numbers here are log10 of IC50 in µM units.

IN: Recorded log10 IC50 of CCNc1nc(C)c(-c2ccnc(Nc3ccc4c(c3)OCO4)n2)s1 , please.
OUT: -0.80

IN: Any idea what its log10 IC50 is? The compound is COc1cc(Nc2nccc(-c3sc(N)nc3C)n2)ccc1N1CCOCC1
OUT: -1.40

IN: Could you tell me which log10 IC50 is on file for CNc1nc(C)c(-c2ccnc(Nc3cccc(S(=O)(=O)NC)c3)n2)s1 ?
OUT: -1.10

IN: What log10 IC50 value was documented for this compound, CCOC(=O)N1CCN(c2ccc(Nc3nccc(-c4sc(C)nc4C)n3)cc2)CC1 ?
OUT: -1.00

IN: Returns the measured log10 IC50 for the input compound. Input: Cc1nc(C)c(-c2ccnc(Nc3ccc(C)c(N4CCOCC4)c3)n2)s1
OUT: -0.60

IN: Requested field: log10 IC50. Item: CC(=O)NCc1cccc(Nc2nccc(-c3sc(NCc4ccccc4)nc3C)n2)c1
OUT: -0.30

IN: Entry CCNc1nc(C)c(-c2ccnc(Nc3cccc(S(=O)(=O)NC(C)(C)CO)c3)n2)s1 : reported log10 IC50 = ?
OUT: -1.60

IN: State the recorded log10 IC50 for this entry: Cc1nc(N)sc1-c1ccnc(Nc2cccc(S(=O)(=O)N3CCOCC3)c2)n1
OUT: 0.50

IN: Quick one: log10 IC50 for CNS(=O)(=O)c1cccc(Nc2nccc(-c3sc(N)nc3C)n2)c1 ?
OUT: -1.10

====

target: Aurora A kinase (Homo sapiens, UniProt O14965); construct: purchased; assay: Aurora-A (human) kinase assay (Kemptide substrate); format: biochemical; details: pIC50 is -log(IC50, M); 15 μM ATP; read-out: Kinase Inhibition pIC50 Aurora A kinase (converted)
Sequence (O14965 whole entry): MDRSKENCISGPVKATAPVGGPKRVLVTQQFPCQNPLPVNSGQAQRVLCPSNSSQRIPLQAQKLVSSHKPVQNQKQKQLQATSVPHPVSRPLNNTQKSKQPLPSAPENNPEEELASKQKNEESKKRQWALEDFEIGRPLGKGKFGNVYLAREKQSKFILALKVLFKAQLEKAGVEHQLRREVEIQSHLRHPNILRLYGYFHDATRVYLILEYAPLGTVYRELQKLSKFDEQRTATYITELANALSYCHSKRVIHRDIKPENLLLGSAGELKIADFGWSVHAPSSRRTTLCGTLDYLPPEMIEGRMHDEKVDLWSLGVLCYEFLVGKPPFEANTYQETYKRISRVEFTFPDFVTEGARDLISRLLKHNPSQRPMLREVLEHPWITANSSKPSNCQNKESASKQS
Endpoint: IC50 (nM)
// return numeric value only (unit: nM, not printed)

IN: Which IC50 value is on record for CNc1nc(C)c(-c2ccnc(Nc3cccc(S(N)(=O)=O)c3)n2)s1 ?
OUT: 39.8

IN: I am curious: what IC50 value has been reported for CCNc1nc(C)c(-c2ccnc(Nc3ccc(N4CCCCC4)cc3)n2)s1 ?
OUT: 79.4

IN: Returns the measured IC50 for the input compound. Input: Cc1nc(C)c(-c2ccnc(Nc3ccc(N4CC(C)OC(C)C4)cc3)n2)s1 (centres unmarked)
OUT: 39.8

IN: Which IC50 value belongs to CCN(C(C)=O)c1nc(C)c(-c2ccnc(N)n2)s1 ?
OUT: 158

IN: Can you look up the measured IC50 of CCNc1nc(C)c(-c2ccnc(Nc3cccc(S(=O)(=O)NC(C)C)c3)n2)s1 for me?
OUT: 1000

IN: Consider the compound shown here: Cc1nc(-c2nc(C)c(-c3ccnc(Nc4ccc(N5CCOCC5)cc4)n3)s2)cs1 What is its recorded IC50?
OUT: 1260

IN: Please give the measured IC50 for this compound: CNc1nc(C)c(-c2ccnc(Nc3cccc(S(=O)(=O)Nc4cccc(OC)c4)c3)n2)s1
OUT: 12.6

IN: May I ask what IC50 has been recorded for Cc1nc(C)c(-c2ccnc(Nc3ccc(N4CCN(Cc5ccccc5)CC4)cc3)n2)s1 ?
OUT: 316

Entry source: patent US20090137572A1
